The origin of these recorded values is paper PMC7734574.

Below: a set of entries, each annotated with reported IC50.
- TARGET ENTITY: VEGFR-2 (purified kinase domain, KDR active) (Homo sapiens)
- Sequence (P35968 834-1162 limits assumed): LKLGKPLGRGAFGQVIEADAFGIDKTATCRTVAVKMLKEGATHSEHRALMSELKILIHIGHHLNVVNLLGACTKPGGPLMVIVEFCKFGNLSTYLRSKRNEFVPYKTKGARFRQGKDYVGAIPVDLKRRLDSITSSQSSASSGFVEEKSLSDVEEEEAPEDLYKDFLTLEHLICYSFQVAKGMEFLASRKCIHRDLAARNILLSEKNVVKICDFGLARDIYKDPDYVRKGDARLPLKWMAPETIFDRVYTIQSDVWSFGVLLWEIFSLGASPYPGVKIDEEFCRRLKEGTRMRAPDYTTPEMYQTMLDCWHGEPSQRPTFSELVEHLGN
- PROTOCOL DETAILS: luminescence-based ADP-Glo kinase assay under controlled light conditions
- Assay type: biochemical
- Design: VEGFR-2 (purified kinase domain, KDR active, Promega); purchased Promega
- CONDITIONS: both irradiated and unirradiated compounds

{"COMPOUND": "CNC(=O)c1ccccc1Sc1ccc2c(-c3ccc(/N=N/c4ccccc4)cc3)n[nH]c2c1 [Compound 4]", "TARGET ENTITY": "VEGFR-2 (purified kinase domain, KDR active) (Homo sapiens)", "IC50": "~1000 nM"}
{"COMPOUND": "CNC(=O)c1ccccc1Sc1ccc2c(-c3cccc(/N=N/c4ccccc4)c3)n[nH]c2c1 [Compound 3]", "TARGET ENTITY": "VEGFR-2 (purified kinase domain, KDR active) (Homo sapiens)", "IC50": "~1000 nM"}

---

- PROTOCOL DETAILS: thermal back isomerization (half-life of the metastable form) by UV/VIS spectroscopy
- Type: physicochemical
- CONDITIONS: 37 °C, DMSO (UV/VIS)
Below: a set of entries, each annotated with reported k of exponential fit of thermal back isomerization.
ASSAY METRIC: k of exponential fit of thermal back isomerization

{"MOLECULE": "CNC(=O)c1ccccc1Sc1ccc2c(-c3cccc(/N=N/c4ccccc4)c3)n[nH]c2c1 [Compound 3]", "NUMBER": 0.01608}
{"MOLECULE": "CNC(=O)c1ccccc1Sc1ccc2c(-c3ccc4c(c3)CSc3ccccc3/N=N\\4)n[nH]c2c1 [Compound 6]", "NUMBER": 0.1853}
{"MOLECULE": "CNC(=O)c1ccccc1Sc1ccc2c(-c3ccc(/N=N/c4ccccc4)cc3)n[nH]c2c1 [Compound 4]", "NUMBER": 0.121}
{"MOLECULE": "CNC(=O)c1ccccc1Sc1ccc2c(-c3ccc4c(c3)/N=N\\c3ccccc3SC4)n[nH]c2c1 [Compound 5]", "NUMBER": 0.09514}
{"MOLECULE": "CNC(=O)c1ccccc1Sc1ccc2c(-c3ccc4c(c3)/N=N\\c3ccccc3CC4)n[nH]c2c1 [Compound 7]", "NUMBER": 0.4711}

---

- TARGET ENTITY: VEGFR-2 (purified kinase domain, KDR active) (Homo sapiens)
- PROTOCOL DETAILS: luminescence-based ADP-Glo kinase assay under controlled light conditions
- Format: biochemical
- Set-up: VEGFR-2 (purified kinase domain, KDR active, Promega); purchased Promega
- CONDITIONS: PSS after irradiation at 405 nm, 10% DMSO
pIC50: −log10 of the molar value.

{"COMPOUND": "CNC(=O)c1ccccc1Sc1ccc2c(-c3ccc4c(c3)/N=N\\c3ccccc3SC4)n[nH]c2c1 [Compound 5]", "pIC50": 6.67}
{"COMPOUND": "CNC(=O)c1ccccc1Sc1ccc2c(-c3ccc4c(c3)CSc3ccccc3/N=N\\4)n[nH]c2c1 [Compound 6]", "pIC50": 6.60}
{"COMPOUND": "CNC(=O)c1ccccc1Sc1ccc2c(-c3ccc4c(c3)/N=N\\c3ccccc3CC4)n[nH]c2c1 [Compound 7]", "pIC50": 6.31}

---

Below: a set of entries, each annotated with reported pIC50.
- TARGET ENTITY: VEGFR-2 (purified kinase domain, KDR active) (Homo sapiens)
- PROTOCOL DETAILS: luminescence-based ADP-Glo kinase assay under controlled light conditions
- Format: biochemical
- Parameters: VEGFR-2 (purified kinase domain, KDR active, Promega); purchased Promega
- CONDITIONS: Z-isomer, in the dark (unirradiated), 10% DMSO
pIC50: −log10 of the molar value.

{"GIVEN SMILES": "CNC(=O)c1ccccc1Sc1ccc2c(-c3ccc4c(c3)CSc3ccccc3/N=N\\4)n[nH]c2c1", "pIC50": "< 5.00"}
{"GIVEN SMILES": "CNC(=O)c1ccccc1Sc1ccc2c(-c3ccc4c(c3)/N=N\\c3ccccc3SC4)n[nH]c2c1", "pIC50": "< 5.00"}
